Molecular target: recombinant BRD4 BD1 (Homo sapiens, UniProt O60885)
Construct: for recombinant BRD4 BD1 and BRD4 BD2 proteins
Test: Competitive fluorescence-polarization (FP) binding assay, BRD4 BD1; further: probe 1.5 nM
Conditions: competitive FP assay; protein 10 nM, probe […]; read-out: IC50 (nM) BRD4 BD1
Procedure: Fluorescence Polarization (FP) competitive binding studies were carried out using a FAM labeled fluorescent probe (ZBA248 or BRD-1F) to determine binding affinities of representative Compounds of the Disclosure for recombinant BRD4 BD1 and BRD4 BD2 proteins. […] Kd values of ZBA248 were calculated by fitting the sigmoidal dose-dependent FP increases as a function of protein concentrations using Graphpad Prism 6.0 software (Graphpad Software, San Diego, Calif.). […]
# IC50 listing for each entry below
Give the value in nM but do not write nM after it.

For orientation, consider the following solved cases.
In [3]: df
Out[3]:
                              sample_smiles  unit_symbol  measured_number
0  COc1cc2c(cc1-c1c(C)noc1C)[nH]c1nc(C)nc(Nc3cccc(C)n3)c12           nM              312
1  COc1cc2c(cc1-c1c(C)noc1C)[nH]c1nc(C)nc(Nc3nn(C)cc3C(C)C)c12           nM               16
2  COc1cc2c(cc1-c1c(C)noc1C)[nH]c1nc(C)nc(Nc3ccc4c(c3)N(C)CC4)c12           nM               29

Item CCc1nn(C)c(CC)c1Nc1nc(C)nc2[nH]c3cc(-c4c(C)noc4C)c(OC)cc3c12 with recombinant BRD4 BD1 (Homo sapiens, UniProt O60885) - IC50?
13
